Data credit: PubChem BioAssay (NCI)

- Tested on: A498 renal
- test_method_notes: NCI-60 one-dose screen, 48 h (100 = growth as untreated, 0 = no growth, -100 = all killed)
- condition_details: 10 µM unless noted
The panel holds about 83,000 compounds, 20% with a hit somewhere; the sample as a whole holds those more often.
Please provide measured growth for the entries that follow.
Please state the figure in %; there is no need to write the unit.

Read the entry CC(=O)Nc1cccc(Nc2nc(N[C@H]3CCCc4ccccc43)c3ccccc3n2)c1 and write its reported growth.
105

Please list growth recorded for the molecule C#CCOc1ccc(/C=N/Nc2nc(-c3cc4cc(Br)ccc4oc3=O)cs2)cc1OC
50.1

Specify growth for Cc1c(C(=O)NNC(=O)c2ccc(Cl)cc2)nnn1-c1ccc(Cl)cc1 and stop.
105

Determine its reported growth: O=C1/C(=C/C2=Cc3ccccc3OC2)SC(=S)N1c1ccccc1F
122

Return value of growth for input COc1ccc(N2N=C(c3ccc4c(c3)OCO4)CC2c2cccc(NC(=O)CCCNS(=O)(=O)c3ccc(F)cc3)c2)cc1 (stereo not drawn) , no commentary.
67.6

Specify reported growth for the molecule shown: CN1CCN(c2ccc3c(c2)nc(NNC(=O)c2ncccn2)c2cccn23)CC1
-95

Write down growth measured for item O=C(c1ccccc1)c1ccc2nc(-c3ccc(F)cc3)[nH]c2c1
90.7

Complete the entry with growth for CCCCSc1nc(Nc2ccc(C(C)=O)cc2)c(C#N)c(-c2ccc(OC)cc2)n1
59.7

Given CN(C)c1nc(NCCNS(=O)(=O)c2ccc(C3=Nc4c(N)nc(N)nc4NC(c4ccc(Cl)cc4)C3)cc2)nc(Nc2ccc(F)cc2)n1 (stereo not drawn) , respond with its growth.
76.5

Name the recorded growth of the item O=c1[nH]n(C(=S)N/N=C/c2ccccc2Cl)c(=O)c2ccccc12 in your answer.
38.7

Give the value of growth reported for the following: c1ccc(-c2csc(Nc3cccc(Nc4nc(-c5ccccc5)cs4)c3)n2)cc1
85.5

For the molecule COc1ccc(-c2cc(C(=O)NCc3ccccc3)nn2-c2ccc(S(C)(=O)=O)cc2)cc1OC , give its measured growth value.
99.9

Return the recorded growth value; entry: C=C1CC[C@@H]2[C@]3(C)COC(c4cn[nH]c4-c4ccc(OC)cc4)O[C@@H]3CC[C@@]2(C)[C@@H]1C/C=C1/C(=O)OCC1O (stereo partly drawn)
50.2

###

- System: T-47D breast
- test_method_notes: NCI-60 one-dose screen, 48 h (100 = growth as untreated, 0 = no growth, -100 = all killed)
- condition_details: 10 µM unless noted
The panel holds about 83,000 compounds, 20% with a hit somewhere; the sample as a whole holds those more often.
measured_endpoint: growth (%)
Write it as a number; the unit % goes unstated.

Fill in growth for record COc1ccc(C(=O)/C=C/c2c(F)cccc2Cl)cc1S(N)(=O)=O
-5.64

Indicate the recorded growth value for this compound: CC(=O)Nc1cccc(-c2nc3cc(-c4ccc(O)cc4)ccc3n2C)c1
9.44

Report growth, nothing else, for this compound: CC(=O)Nc1cccc(Nc2nc(NCc3ccccc3)c3ccccc3n2)c1
-60.1

Given the compound COc1cc2c(c(OC)c1OC)C(=O)CC(c1cccc(NC(=O)c3cccc([N+](=O)[O-])c3)c1)O2 (centres undefined) , write its reported growth.
18.6

###

Please respond with reported growth for every item in the list.
- System: HCT-116 colon
- test_method_notes: NCI-60 one-dose screen, 48 h (100 = growth as untreated, 0 = no growth, -100 = all killed)
- condition_details: 10 µM unless noted
This is part of a sample that, as a whole, favours compounds with a hit. Of some 83,000 tested, about 20% had one in any assay.
Reply numerically in %, unit not repeated.

# return recorded growth for entry N#Cc1c(-c2ccccc2Cl)cc(-c2c[nH]c3ccccc23)[nH]c1=O
52.4

Annotate the compound CC(C)CSc1nc(NCCc2c[nH]c3ccccc23)c(C#N)c(-c2ccc(Cl)cc2)n1 with its measured growth.
19.5

Identify measured growth corresponding to CC(C)c1sc(NC(=O)c2cc(NC(=O)c3cc(NC(=O)c4cscn4)cn3C)cn2C)nc1C(=O)NCCCN(C)C
-79.5

Fill in growth for record COc1cc2oc(-c3cccc(C(=O)Nc4ccc(Cl)cc4)c3)cc(=O)c2c(OCC(=O)N[C@@H](Cc2ccccc2)C(=O)O)c1OC
109

Determine from records and report growth for Cc1ccc(-c2nnc3ccc(N/N=C/c4ccccc4)nn23)cc1
99.5

Specify growth for Cn1cc(-c2cc3nc(-c4cn(C)c5ncccc45)cc(N)n3n2)c2ccccc21 and stop.
-20

Specify growth for CC1(C)CC[C@]2(C(=O)O)CC[C@]3(C)C(=CCC4[C@@]5(C)C[C@@H](O)[C@@H]6OC(c7ccco7)OC[C@@]6(C)C5CC[C@]43C)C2C1 (stereo not given in full) and stop.
11.8

Name the recorded growth of the item COc1ccc(-c2ccnc(SCc3cc4cc(Cl)ccc4[nH]c3=O)n2)cc1 in your answer.
26.6

Assign growth to the following record: COC(OC)C1=C(C)OC(N)=C(C#N)C12C(=O)Nc1ccccc12 (stereo not given)
100

Retrieve growth measured for CC1(c2cc3cc(Cl)ccc3oc2=O)NC(=O)c2c(/C=C/C(=O)OC3CC4CCC3(C)C4(C)C)cccc2N1 (stereo not given) and print it.
40.4
